The measured values listed here are drawn from ChEMBL document CHEMBL1131419.

TARGET_OR_SYSTEM: Tubulin (Bos taurus, UniProt Q6B856+Q862L2+Q862F3)
Assay type: protein assay
OBSERVABLE: IC50 (µM)

The cases that follow already have their IC50 on record.
                                   compound  experimental_result
0  CCCCC1Cc2cc(O)ccc2-c2c(C=O)c3ccc(O)cc3n21 (configuration not stated)                  8.9
1  CCCC1Cc2cc(O)ccc2-c2c(C=O)c3ccc(O)cc3n21 (configuration not stated)                   19
2      COc1ccc(-c2[nH]c3ccc(OC)cc3c2C=O)cc1                    4
3       COc1ccc(-c2[nH]c3cc(F)ccc3c2C=O)cc1                  1.8

[1] COc1ccc(-c2[nH]c3cc(OC)ccc3c2C=O)cc1
[2] COc1ccc(-c2[nH]c3ccccc3c2C=O)cc1
query: Consider 1 and 2 . Which of these has its IC50 at a higher number? Response format: the label of the selected entry.
result: 2
